- System: TNFα
- assay.protocol: cells
- Type: cell-based, human
- condition.summary: Homo sapiens, Monocyte, LPS-stimulated human monocytes, TNFα content; read-out: EC50 TNF
parameter.measured: pEC50
One number for each entry, as −log10 of the molar value.

Answered cases to consult:
INSERT INTO results (compound, result_value) VALUES
  ('CC(C)(O)[C@H](F)CNC(=O)c1cnc(-c2ccc3cc(C#N)cnn23)cc1Nc1ccc(CC#N)nc1', 8.05),
  ('CC(C)(C)C(=O)N[C@H]1CC[C@H](Nc2cc(-c3ccc4cc(C#N)cnn34)ncc2C(=O)NC[C@@H](F)C(C)(C)O)CC1', 6.41),
  ('CC(C)(O)[C@H](F)CNC(=O)c1cnc(-c2ccc3cc(C#N)cnn23)cc1NC12CCC(C(N)=O)(CC1)CC2', 7.77);

Hi! Can you tell me pEC50 for each of these compounds?
1. CC(C)Nc1cc(-c2ccc3cc(C#N)cnn23)ncc1C(=O)NCCC(C)(N)C(F)F (stereo not shown)
2. CC(C)(O)[C@H](F)CNC(=O)c1cnc(-c2ccc3cc(C#N)cnn23)cc1N[C@H]1CN2CCC1CC2
3. CC(C)(O)C1CCC(Nc2cc(-c3ccc4cc(C#N)cnn34)ncc2C(=O)NC[C@@H](F)C(C)(C)O)CC1 (stereo partly shown)
4. CC(C)(F)[C@H](F)CNC(=O)c1cnc(-c2ccc3cc(C#N)cnn23)cc1NC12CCC(O)(CC1)CC2

1: 7.02; 2: 5.12; 3: 7.66; 4: 7.80
